TARGET_OF_ASSAY: 5-hydroxytryptamine receptor 2B (Homo sapiens)
Sequence (P41595 whole entry): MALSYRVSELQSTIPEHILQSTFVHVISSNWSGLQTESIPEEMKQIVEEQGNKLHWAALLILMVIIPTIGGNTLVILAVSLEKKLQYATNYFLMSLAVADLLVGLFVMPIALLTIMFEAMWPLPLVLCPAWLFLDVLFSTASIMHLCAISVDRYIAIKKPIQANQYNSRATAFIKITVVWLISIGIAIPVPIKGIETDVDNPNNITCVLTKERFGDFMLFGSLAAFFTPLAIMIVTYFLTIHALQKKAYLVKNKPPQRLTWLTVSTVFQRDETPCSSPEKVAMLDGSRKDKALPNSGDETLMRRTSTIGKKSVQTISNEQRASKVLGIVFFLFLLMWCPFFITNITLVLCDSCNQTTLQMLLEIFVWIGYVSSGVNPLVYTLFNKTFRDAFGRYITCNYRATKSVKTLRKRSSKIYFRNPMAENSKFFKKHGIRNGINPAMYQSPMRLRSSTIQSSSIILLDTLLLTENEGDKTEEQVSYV
pKi: −log10 of the molar value.
Entries annotated with measured pKi
PROPERTY: pKi

> print(dat)
                   structure.as.smiles  observed.result
 1               Clc1c(Br)ccc2c1CCNCC2             7.60
 2              c1cc2ccc3c(c2o1)CCNCC3             7.47
 3                Fc1ccc2c(c1Cl)CCNCC2             6.39
 4               Clc1ccc2c(c1Cl)CCNCC2             7.00
 5  CN1CCc2ccc([N+](=O)[O-])c(Cl)c2CC1             6.00
 6              c1cc2c3c(ccc2o1)CCNCC3             7.05
 7               COc1ccc2c(c1Cl)CCNCC2             7.08
 8              N#Cc1ccc2c(c1Cl)CCNCC2             7.19
 9     O=[N+]([O-])c1ccc2c(c1Cl)CCNCC2             6.52
10               CNc1ccc2c(c1Cl)CCNCC2             6.68
11  CCc1cc2c(ccc3cnn(C[C@H](C)N)c32)o1             8.60
